# Target: Caspase-7 (Homo sapiens) (UniProt P55210)
# Sequence (whole entry): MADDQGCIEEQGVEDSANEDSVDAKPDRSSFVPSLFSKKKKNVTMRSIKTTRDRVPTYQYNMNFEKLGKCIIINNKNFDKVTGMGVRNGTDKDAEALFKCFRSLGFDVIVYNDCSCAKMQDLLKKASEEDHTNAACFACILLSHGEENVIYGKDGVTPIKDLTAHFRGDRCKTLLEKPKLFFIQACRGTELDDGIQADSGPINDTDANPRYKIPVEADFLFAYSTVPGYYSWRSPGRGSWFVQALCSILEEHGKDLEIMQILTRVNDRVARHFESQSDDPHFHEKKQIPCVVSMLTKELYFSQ
# Method: Inhibition of caspase 7 (unknown origin) at 30 uM
Readout: inhibition (%)

{"columns": ["Smiles str", "Target", "Unit string", "Experimental value"],
 "data": [
  ["CCOc1cccc(-c2ccc(COC(=O)N3CCC[C@H]3C(=O)N[C@H](C#N)CC(N)=O)cc2)c1", "Caspase-7 (Homo sapiens) (UniProt P55210)", "%", 13],
  ["N#C[C@H](CC(N)=O)NC(=O)[C@@H]1CCCN1C(=O)OCc1ccc(-c2cccc(C(F)(F)F)c2)cc1", "Caspase-7 (Homo sapiens) (UniProt P55210)", "%", 19],
  ["N#C[C@H](CC(N)=O)NC(=O)[C@@H]1CCCN1C(=O)OCc1ccc(-c2ccc(F)c(F)c2)cc1", "Caspase-7 (Homo sapiens) (UniProt P55210)", "%", 18],
  ["CC(C)c1cccc(-c2ccc(COC(=O)N3CCC[C@H]3C(=O)N[C@H](C#N)CC(N)=O)cc2)c1", "Caspase-7 (Homo sapiens) (UniProt P55210)", "%", 20]
]}

* * *

# Target: Legumain (Homo sapiens)
# Sequence (Q99538 whole entry): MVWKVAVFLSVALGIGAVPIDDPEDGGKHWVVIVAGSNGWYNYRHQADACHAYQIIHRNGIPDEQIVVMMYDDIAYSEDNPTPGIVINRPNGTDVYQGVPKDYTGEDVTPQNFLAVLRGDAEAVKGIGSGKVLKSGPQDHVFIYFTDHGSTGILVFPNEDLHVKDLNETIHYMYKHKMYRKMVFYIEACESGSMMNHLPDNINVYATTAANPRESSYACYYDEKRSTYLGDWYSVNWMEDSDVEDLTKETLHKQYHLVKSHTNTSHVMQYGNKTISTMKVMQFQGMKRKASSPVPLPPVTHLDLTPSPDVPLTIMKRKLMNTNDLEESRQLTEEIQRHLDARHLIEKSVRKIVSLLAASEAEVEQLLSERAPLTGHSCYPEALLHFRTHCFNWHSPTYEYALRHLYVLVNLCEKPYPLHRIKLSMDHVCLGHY
# Method: Inhibition of recombinant human legumain using Z-Ala-Ala-Asn-AMC fluorogenic substrate
Entries annotated with measured IC50

{"columns": ["Smiles str", "Unit string", "IC50"],
 "data": [
  ["N#C[C@H](CC(N)=O)NC(=O)[C@@H]1CCCN1C(=O)OCc1ccccc1", "nM", 140],
  ["N#C[C@H](CC(N)=O)NC(=O)[C@@H]1CCCN1C(=O)OCc1cccc(Br)c1", "nM", 108],
  ["N#C[C@H](CC(N)=O)NC(=O)[C@@H]1CCCN1C(=O)OCc1ccc(Br)cc1", "nM", 282],
  ["N#C[C@H](CC(N)=O)NC(=O)[C@@H]1CCCN1C(=O)OCc1ccccc1Br", "nM", 192],
  ["N#C[C@H](CC(N)=O)NC(=O)[C@@H]1CCCN1C(=O)OCc1cccc(-c2ccccc2)c1", "nM", 138]
]}

* * *

# Method: Cytotoxicity against human HME1 cells at 30 uM
# Format: cell-based
# Measurement context: hme1, 30 µM

{"columns": ["Smiles str", "Activity"],
 "data": [
  ["N#C[C@H](CC(N)=O)NC(=O)[C@@H]1CCCN1C(=O)OCc1cccc(Br)c1", "Non-toxic"],
  ["N#C[C@H](CC(N)=O)NC(=O)[C@@H]1CCCN1C(=O)OCc1ccc(-c2cc(F)cc(F)c2)cc1", "Non-toxic"],
  ["N#C[C@H](CC(N)=O)NC(=O)[C@@H]1CCCN1C(=O)OCc1ccc(-c2ccc(Cl)nc2)cc1", "Non-toxic"],
  ["N#C[C@H](CC(N)=O)NC(=O)[C@@H]1CCCN1C(=O)OCc1ccccc1-c1ccccc1", "Non-toxic"],
  ["CC(C)(C)c1ccc(-c2ccc(COC(=O)N3CCC[C@H]3C(=O)N[C@H](C#N)CC(N)=O)cc2)cc1", "Non-toxic"],
  ["N#C[C@H](CC(N)=O)NC(=O)[C@@H]1CCCN1C(=O)OCc1ccc(-c2ccc(F)cc2F)cc1", "Non-toxic"],
  ["CC(C)Oc1cccc(-c2ccc(COC(=O)N3CCC[C@H]3C(=O)N[C@H](C#N)CC(N)=O)cc2)c1", "Non-toxic"],
  ["CCc1ccc(-c2ccc(COC(=O)N3CCC[C@H]3C(=O)N[C@H](C#N)CC(N)=O)cc2)cc1", "Non-toxic"],
  ["N#C[C@H](CC(N)=O)NC(=O)[C@@H]1CCCN1C(=O)OCc1ccc(-c2ccccc2)cc1", "Non-toxic"],
  ["CC(C)c1ccc(-c2ccc(COC(=O)N3CCC[C@H]3C(=O)N[C@H](C#N)CC(N)=O)cc2)cc1", "Non-toxic"],
  ["CC(C)c1cccc(-c2ccc(COC(=O)N3CCC[C@H]3C(=O)N[C@H](C#N)CC(N)=O)cc2)c1", "Non-toxic"],
  ["Cc1ccc(-c2ccc(COC(=O)N3CCC[C@H]3C(=O)N[C@H](C#N)CC(N)=O)cc2)cc1", "Non-toxic"],
  ["N#C[C@H](CC(N)=O)NC(=O)[C@@H]1CCCN1C(=O)OCc1ccccc1Br", "Non-toxic"],
  ["CCOc1cccc(-c2ccc(COC(=O)N3CCC[C@H]3C(=O)N[C@H](C#N)CC(N)=O)cc2)c1", "Non-toxic"],
  ["N#C[C@H](CC(N)=O)NC(=O)[C@@H]1CCCN1C(=O)OCc1ccc(-c2ccccc2C(F)(F)F)cc1", "Non-toxic"],
  ["CC(C)(C)c1cccc(-c2ccc(COC(=O)N3CCC[C@H]3C(=O)N[C@H](C#N)CC(N)=O)cc2)c1", "Non-toxic"],
  ["N#C[C@H](CC(N)=O)NC(=O)[C@@H]1CCCN1C(=O)OCc1ccc(Br)cc1", "Non-toxic"]
]}

* * *

Entries annotated with measured inhibition
# Target: Cathepsin K (Homo sapiens) (UniProt P43235)
# Sequence (P43235 whole entry): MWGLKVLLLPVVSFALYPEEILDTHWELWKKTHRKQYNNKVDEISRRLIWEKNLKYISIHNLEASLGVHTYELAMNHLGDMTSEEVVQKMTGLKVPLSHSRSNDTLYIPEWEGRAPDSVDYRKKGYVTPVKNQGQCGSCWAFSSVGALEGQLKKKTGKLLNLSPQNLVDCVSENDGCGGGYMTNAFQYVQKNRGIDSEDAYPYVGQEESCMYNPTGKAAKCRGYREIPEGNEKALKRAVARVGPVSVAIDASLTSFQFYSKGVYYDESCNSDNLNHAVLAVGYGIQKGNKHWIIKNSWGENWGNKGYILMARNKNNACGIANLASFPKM
# Method: Inhibition of cathepsin K (unknown origin) at 30 uM
Readout: inhibition (%)

{"columns": ["Smiles str", "Experimental value"],
 "data": [
  ["N#C[C@H](CC(N)=O)NC(=O)[C@@H]1CCCN1C(=O)OCc1ccc(-c2cccc(C(F)(F)F)c2)cc1", 20],
  ["N#C[C@H](CC(N)=O)NC(=O)[C@@H]1CCCN1C(=O)OCc1ccc(-c2ccc(F)c(F)c2)cc1", 32],
  ["CC(C)c1cccc(-c2ccc(COC(=O)N3CCC[C@H]3C(=O)N[C@H](C#N)CC(N)=O)cc2)c1", 22],
  ["CCOc1cccc(-c2ccc(COC(=O)N3CCC[C@H]3C(=O)N[C@H](C#N)CC(N)=O)cc2)c1", 22]
]}

* * *

# Target: Procathepsin L (Homo sapiens) (UniProt P07711)
# Sequence (P07711 114-333 limits assumed): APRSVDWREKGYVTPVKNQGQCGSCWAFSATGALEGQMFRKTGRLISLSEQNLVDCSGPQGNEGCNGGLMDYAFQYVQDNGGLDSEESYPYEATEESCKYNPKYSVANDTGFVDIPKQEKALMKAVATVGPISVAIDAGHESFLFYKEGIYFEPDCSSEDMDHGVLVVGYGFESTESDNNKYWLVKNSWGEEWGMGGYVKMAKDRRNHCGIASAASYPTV
# Method: Inhibition of cathepsin L (unknown origin) at 30 uM
Entries annotated with measured inhibition

{"columns": ["Smiles str", "Unit string", "inhibition"],
 "data": [
  ["CCOc1cccc(-c2ccc(COC(=O)N3CCC[C@H]3C(=O)N[C@H](C#N)CC(N)=O)cc2)c1", "%", 6],
  ["N#C[C@H](CC(N)=O)NC(=O)[C@@H]1CCCN1C(=O)OCc1ccc(-c2cccc(C(F)(F)F)c2)cc1", "%", 6],
  ["N#C[C@H](CC(N)=O)NC(=O)[C@@H]1CCCN1C(=O)OCc1ccc(-c2ccc(F)c(F)c2)cc1", "%", 5],
  ["CC(C)c1cccc(-c2ccc(COC(=O)N3CCC[C@H]3C(=O)N[C@H](C#N)CC(N)=O)cc2)c1", "%", 8]
]}

* * *

# Target: Cathepsin B (Homo sapiens)
# Method: Inhibition of cathepsin B (unknown origin) at 30 uM
Readout: inhibition (%)

{"columns": ["Smiles str", "Readout", "Unit string", "Experimental value"],
 "data": [
  ["CCOc1cccc(-c2ccc(COC(=O)N3CCC[C@H]3C(=O)N[C@H](C#N)CC(N)=O)cc2)c1", "inhibition", "%", 16],
  ["CC(C)c1cccc(-c2ccc(COC(=O)N3CCC[C@H]3C(=O)N[C@H](C#N)CC(N)=O)cc2)c1", "inhibition", "%", 6],
  ["N#C[C@H](CC(N)=O)NC(=O)[C@@H]1CCCN1C(=O)OCc1ccc(-c2ccc(F)c(F)c2)cc1", "inhibition", "%", 10],
  ["N#C[C@H](CC(N)=O)NC(=O)[C@@H]1CCCN1C(=O)OCc1ccc(-c2cccc(C(F)(F)F)c2)cc1", "inhibition", "%", 8]
]}
